System: Escherichia coli TOP10
assay-comment: shrunken log2 fold change of peptide-encoding DNA abundance (4.5 h post-induction vs induction); higher = less antimicrobial activity (less host growth inhibition)
assay-setup: time post-induction: 4.5 h; library: site-saturation at positions 5, 18, 19, 20
Here, each record is paired with measured shrunken log2 fold change data.
# print the numeric value only

>  <residue-string>
RRIRTRPPRLPRPRPRPWVPPRP

>  <shrunken log2 fold change>
0.252

$$$$
>  <residue-string>
RRIRLRPPRLPRPRPRPIPCPRP

>  <shrunken log2 fold change>
-0.00241

$$$$
>  <residue-string>
RRIRWRPPRLPRPRPRPQHNPRP

>  <shrunken log2 fold change>
-0.537

$$$$
>  <residue-string>
RRIRFRPPRLPRPRPRPYNYPRP

>  <shrunken log2 fold change>
-1.03

$$$$
>  <residue-string>
RRIRDRPPRLPRPRPRPCRRPRP

>  <shrunken log2 fold change>
-0.155

$$$$

What value of measured shrunken log2 fold change is listed for RRIRFRPPRLPRPRPRPRDEPRP ?
0.278

Would you kindly repeat that for RRIRERPPRLPRPRPRPASQPRP ?
-0.0177

Would you kindly repeat that for RRIRVRPPRLPRPRPRPHWKPRP ?
-0.14

Would you kindly repeat that for RRIRDRPPRLPRPRPRPSGMPRP ?
-0.0709

Would you kindly repeat that for RRIRERPPRLPRPRPRPVNPPRP ?
-0.0961

* * *

Tested on: Escherichia coli TOP10
assay-comment: shrunken log2 fold change of peptide-encoding DNA abundance (4.5 h post-induction vs induction); higher = less antimicrobial activity (less host growth inhibition)
assay-setup: time post-induction: 4.5 h; library: site-saturation at positions 5, 18, 19, 20
metric-name: shrunken log2 fold change
# print the numeric value only

Sample records with shrunken log2 fold change:
>  <residue-string>
RRIRIRPPRLPRPRPRPYHHPRP

>  <shrunken log2 fold change>
-0.0849

$$$$
>  <residue-string>
RRIRVRPPRLPRPRPRPCHLPRP

>  <shrunken log2 fold change>
-0.00192

$$$$

What value of measured shrunken log2 fold change is listed for RRIRFRPPRLPRPRPRPFDQPRP ?
-0.291

Would you kindly repeat that for RRIRDRPPRLPRPRPRPKDDPRP ?
0.0765

Would you kindly repeat that for RRIRARPPRLPRPRPRPYCHPRP ?
-0.381

* * *

Here, each record is paired with measured shrunken log2 fold change data.
Tested on: Escherichia coli TOP10;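 also: peptides expressed intracellularly from a pBAD plasmid library in pooled LB shake-flask culture, induced with 0.3% L-arabinose, DNA abundance read by NGS, three biological replicates, DESeq2 with apeglm shrinkage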
assay-comment: shrunken log2 fold change of peptide-encoding DNA abundance (4.5 h post-induction vs induction); higher = less antimicrobial activity (less host growth inhibition)
assay-setup: time post-induction: 4.5 h; library: site-saturation at positions 5, 18, 19, 20
# print the numeric value only

Sample records with shrunken log2 fold change:
>  <residue-string>
RRIRSRPPRLPRPRPRPLEKPRP

>  <shrunken log2 fold change>
-0.0565

$$$$
>  <residue-string>
RRIRWRPPRLPRPRPRPGGEPRP

>  <shrunken log2 fold change>
0.107

$$$$
>  <residue-string>
RRIRTRPPRLPRPRPRPNFFPRP

>  <shrunken log2 fold change>
0.0096

$$$$
>  <residue-string>
RRIRLRPPRLPRPRPRPLDEPRP

>  <shrunken log2 fold change>
-0.0999

$$$$
>  <residue-string>
RRIRFRPPRLPRPRPRPLSAPRP

>  <shrunken log2 fold change>
-0.039

$$$$

We now examine a further sequence.
What value of measured shrunken log2 fold change is listed for RRIRWRPPRLPRPRPRPTIDPRP ?
-0.0862
